# System: 292921-168-R-J2-PDC complex spheroid growth;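 note: spheroids exposed to compounds for seven days after three days of growth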
# PROTOCOL SUMMARY: Anticancer human tumor 292921-168-R-J2-PDC patient-derived pancreatic carcinoma cell line growth inhibition [AhR]
# EXPERIMENTAL CONTEXT: second compound 0.316 µM; first compound 0.1 µM; active compounds read low
# Lookup of reported viability, T/C keyed by entry
REPORTED ENDPOINT: viability, T/C (%)

>>> meas_value("Cn1ncnc1C1c2n[nH]c(=O)c3cc(F)cc(c23)NC1c1ccc(F)cc1 (stereo not drawn) + Cc1ccccc1N=Nc1ccc(NC(=O)c2ccnn2C)c(C)c1")
86.2
>>> meas_value("CC[C@@]1(O)C(=O)OCc2c1cc1n(c2=O)Cc2cc3c(CN(C)C)c(O)ccc3nc2-1 + Cc1ccccc1N=Nc1ccc(NC(=O)c2ccnn2C)c(C)c1")
18.6
>>> meas_value("NS(=O)(=O)OCC1CC(n2ccc3c(NC4CCc5ccccc54)ncnc32)CC1O (stereo not drawn) + CC(CO)NC(=O)c1cc(-c2ccc(Cl)cc2)nn(-c2cnn(C)c2)c1=O")
98
